# assay_text: Modest half life was determined
# Type: ADME
# settings: rat
observable: half-life (h)
The answer is to be given in h; state only the numeric part.

For reference, reported half-life for `Cc1cnc(N)c(C(=O)Nc2ccccn2)n1` stands at 4.4

---

# assay_text: Modest half life in rat was determined
# Format: ADME
# settings: in vivo
observable: half-life
Field: value (include unit after the number)

For reference, reported half-life for `Cc1cccc(NC(=O)c2nc(C)ccc2Nc2cccnc2)n1` stands at 1.25 h

---

Listing of recorded pIC50 by entry.
# system_tested: Metabotropic glutamate receptor 5 (Homo sapiens, UniProt P41594)
# Sequence (P41594 whole entry): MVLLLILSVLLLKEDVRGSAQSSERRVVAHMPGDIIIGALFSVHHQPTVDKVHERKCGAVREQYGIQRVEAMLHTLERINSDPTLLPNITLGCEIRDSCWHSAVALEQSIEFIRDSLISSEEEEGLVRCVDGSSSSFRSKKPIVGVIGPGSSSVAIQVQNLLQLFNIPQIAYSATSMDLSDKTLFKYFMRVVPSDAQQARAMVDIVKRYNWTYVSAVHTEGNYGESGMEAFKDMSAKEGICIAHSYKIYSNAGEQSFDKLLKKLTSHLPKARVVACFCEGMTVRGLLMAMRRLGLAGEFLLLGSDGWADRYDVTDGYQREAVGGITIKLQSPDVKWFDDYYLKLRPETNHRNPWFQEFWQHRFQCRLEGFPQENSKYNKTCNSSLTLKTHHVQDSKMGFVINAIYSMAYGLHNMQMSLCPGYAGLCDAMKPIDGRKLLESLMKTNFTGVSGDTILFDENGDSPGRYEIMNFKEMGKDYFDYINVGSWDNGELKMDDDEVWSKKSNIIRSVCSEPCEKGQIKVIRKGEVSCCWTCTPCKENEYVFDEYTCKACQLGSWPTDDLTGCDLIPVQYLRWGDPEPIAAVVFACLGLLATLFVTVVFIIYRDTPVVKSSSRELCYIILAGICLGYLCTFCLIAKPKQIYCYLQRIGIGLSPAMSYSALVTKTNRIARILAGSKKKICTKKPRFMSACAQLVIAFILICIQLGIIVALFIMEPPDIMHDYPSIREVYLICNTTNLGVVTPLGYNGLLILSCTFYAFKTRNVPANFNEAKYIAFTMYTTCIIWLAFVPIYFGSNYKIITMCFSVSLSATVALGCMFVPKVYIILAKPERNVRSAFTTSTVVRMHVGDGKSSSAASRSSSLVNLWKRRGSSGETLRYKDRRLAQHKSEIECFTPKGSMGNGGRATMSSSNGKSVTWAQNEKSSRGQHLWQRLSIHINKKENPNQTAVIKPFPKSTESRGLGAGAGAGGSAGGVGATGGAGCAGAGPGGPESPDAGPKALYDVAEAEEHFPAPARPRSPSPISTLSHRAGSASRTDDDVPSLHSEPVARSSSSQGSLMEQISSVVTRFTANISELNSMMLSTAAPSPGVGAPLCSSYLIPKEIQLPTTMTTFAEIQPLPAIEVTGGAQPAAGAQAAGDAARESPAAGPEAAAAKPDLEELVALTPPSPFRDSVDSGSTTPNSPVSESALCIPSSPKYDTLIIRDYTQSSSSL
# assay_text: Inhibitory concentration against human recombinant metabotropic glutamate receptor 5 (mGlu5) in Ltk cells determined using fluorescence detection method
# Assay type: cell-based
In plain terms, pIC50 is the concentration in mol/L turned into minus its base-10 logarithm.

The cases that follow already have their pIC50 on record.
INSERT INTO assay_data (smiles_structure, reported_result) VALUES
  ('CN(C)c1ncc(C(=O)Nc2ccccn2)nc1Cl', 6.80),
  ('Cc1cccc(NC(=O)c2nc(C)ccc2Nc2cccnc2)n1', 7.96),
  ('Cc1cccc(NC(=O)c2nc(Cl)cnc2N)n1', 8.30),
  ('Cc1cccc(NC(=O)c2nc(C)cnc2N)n1', 8.10),
  ('Cc1cccc(NC(=O)c2cccc(C)n2)n1', 7.49),
  ('CN(C)c1cnc(C(=O)Nc2ccccn2)c(N)n1', 5.29),
  ('Nc1ncc(Cl)nc1C(=O)Nc1ccccn1', 7.96),
  ('CC(C)Nc1nc(N)c(C(=O)Nc2ccccn2)nc1Cl', 7.64),
  ('O=C(Nc1ccccn1)c1cncc(Cl)n1', 6.60),
  ('Cc1cccc(NC(=O)c2nc(C)ccc2O)n1', 8.15);

For reference, reported pIC50 for `Nc1ncc(Br)nc1C(=O)Nc1ccccn1` stands at 7.92

For reference, reported pIC50 for `Nc1nc(N)c(C(=O)Nc2ccccn2)nc1Cl` stands at 5.42

For reference, reported pIC50 for `Cc1cncc(C(=O)Nc2ccccn2)n1` stands at 6.78

For reference, reported pIC50 for `Cc1ccc(O)c(C(=O)Nc2cccc(C)n2)c1` stands at 6.98

---

# assay_text: High plasma clearance in rat was determined
# Assay type: ADME, organism-based
# settings: read-out: Clp
observable: clearance (mL/min/kg)
The answer is to be given in mL/min/kg; state only the numeric part.

For reference, reported clearance for `Cc1cccc(NC(=O)c2nc(C)ccc2Nc2cccnc2)n1` stands at 176

---

# assay_text: Low oral bioavailability was determined
# Format: ADME, organism-based
# settings: rat, in vivo
observable: bioavailability (%)
The answer is to be given in %; state only the numeric part.

For reference, reported bioavailability for `Cc1cnc(N)c(C(=O)Nc2ccccn2)n1` stands at 20

---

Listing of recorded pIC50 by entry.
# system_tested: Metabotropic glutamate receptor 5 (Homo sapiens)
# assay_text: Inhibitory concentration against human recombinant metabotropic glutamate receptor 5 (mGlu5) in Ltk cells determined using fluorescence detection method
# Type: cell-based
In plain terms, pIC50 is the concentration in mol/L turned into minus its base-10 logarithm.

For reference, reported pIC50 for `CNc1ncc(Cl)nc1C(=O)Nc1ccccn1` stands at 6.84

For reference, reported pIC50 for `Cc1cnc(N)c(C(=O)Nc2ccccn2)n1` stands at 7.55

For reference, reported pIC50 for `CN(C)c1nc(N)c(C(=O)Nc2ccccn2)nc1Cl` stands at 6.87

For reference, reported pIC50 for `Nc1nc(N2CCCCC2)c(Cl)nc1C(=O)Nc1ccccn1` stands at 6.99
